experiment.description: Bioavailability in rat at 0.1 mg/kg, iv and 1 mg/kg, po
Format: ADME, organism-based
measurement.conditions: in vivo
metric.name: bioavailability
Please answer using a numeric value trailed by its unit.

Please fill in: bioavailability reported for CCc1nc(CC(C)(C)C)c(CN)c(-c2ccc(C)cc2)c1CC(=O)O.O = 53.3%

###

experiment.description: Bioavailability in dog at 0.1 mg/kg, iv and 1 mg/kg, po
Format: ADME, organism-based, Canis lupus familiaris
measurement.conditions: in vivo
metric.name: bioavailability
Please answer using a numeric value trailed by its unit.

Please fill in: bioavailability reported for CCc1nc(CC(C)(C)C)c(CN)c(-c2ccc(C)cc2)c1CC(=O)O.O = 88%
